target: IRAK4 enzyme (Homo sapiens (Human)); assay: biochemical; type: biochemical; settings: IRAK4 enzyme, TR-FRET, 500 μM ATP
Sequence (Q9NWZ3 whole entry): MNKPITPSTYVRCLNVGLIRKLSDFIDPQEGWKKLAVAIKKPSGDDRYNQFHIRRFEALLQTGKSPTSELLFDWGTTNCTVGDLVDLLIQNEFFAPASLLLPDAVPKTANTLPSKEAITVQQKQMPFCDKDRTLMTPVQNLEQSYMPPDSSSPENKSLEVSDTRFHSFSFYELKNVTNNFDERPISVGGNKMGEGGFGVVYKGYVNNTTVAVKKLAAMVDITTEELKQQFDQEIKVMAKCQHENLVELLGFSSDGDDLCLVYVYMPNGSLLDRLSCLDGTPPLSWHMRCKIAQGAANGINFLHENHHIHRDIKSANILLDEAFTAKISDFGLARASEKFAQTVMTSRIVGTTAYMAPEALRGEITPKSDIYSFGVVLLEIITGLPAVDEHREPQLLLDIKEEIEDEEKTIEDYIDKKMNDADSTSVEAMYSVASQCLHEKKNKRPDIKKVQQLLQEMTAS
pIC50: −log10 of the molar value.
measurement.name: pIC50

Inquiry: Tell me the measured pIC50 of CC(C)Oc1cncc(Nc2cc(-c3ccc4cc(C#N)cnn34)ncc2C(=O)NC[C@@H](F)C(C)(C)O)c1 , please.
Reply text: > 9.00

Inquiry: Form field: reported pIC50 of CC(C)(O)[C@H](F)CNC(=O)c1cnc(-c2ccc3cc(C#N)cnn23)cc1Nc1cn[nH]c1
Reply text: > 9.00

Inquiry: I have this compound here, CC(C)(O)[C@H](F)CNC(=O)c1cnc(-c2ccc3cc(C#N)cnn23)cc1NC1CC2(COC2)C1 , and I need its recorded pIC50.
Reply text: > 9.00

Inquiry: Record request: pIC50 value, item COC(=O)NCc1ccc(Nc2cc(-c3ccc4cc(C#N)cnn34)ncc2C(=O)NC[C@@H](F)C(C)(C)O)cc1
Reply text: > 9.00
